# Test system: HT-29
# assay info: Cytotoxicity against human HT-29 cells assessed as reduction in cell viability after 72 hrs by Cell Titer-Glo assay
# Assay type: functional, cell-based
# condition label: HT-29, 72 h
Answer each item with its documented pIC50.
Answers are plain numbers, as −log10 of the molar value.

Answered examples (2):
COC[C@H](NC(=O)[C@H](CC(=O)NCC(C)C)NS(=O)(=O)c1ccc(C)cc1)C(=O)N[C@@H](CC(C)C)C(=O)c1ccco1	5.31
COC[C@H](NC(=O)[C@H](CC(=O)NCC(C)(C)C)NS(=O)(=O)c1ccc(C)cc1)C(=O)N[C@@H](CC(C)C)C(=O)c1ccco1	6.14

Q. Can you look up the measured pIC50 of "COc1ccc(C[C@H](NS(=O)(=O)c2ccc(C)cc2)C(=O)N[C@@H](Cc2ccc(O)cc2)C(=O)N[C@@H](CC(C)C)C(=O)c2ccco2)cc1" for me?
A. 5.27

Cited source: ChEMBL document CHEMBL4680218
